B1: HDV Ribozyme (parent)
chain: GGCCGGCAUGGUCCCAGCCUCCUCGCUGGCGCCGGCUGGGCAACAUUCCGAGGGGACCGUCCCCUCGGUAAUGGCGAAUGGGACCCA

Variants of: B1
Test: self-cleavage, relative activity (ratio to wild type); higher = more cleavage; co-transcriptional
Range-based classes on measured self-cleavage: low-valued (below 0.08), mid-valued (0.08 to below 0.6), high-valued (0.6 or more)

Check out these entries, answers already filled in.
G39U C57U | high-valued
C24G C64A | mid-valued
A45U C58A | mid-valued
A43G C48G | high-valued

### Prompt Into which bin does this variant go? U23G G68U
### Response high-valued

### Prompt Into which bin does this variant go? C63G U69C
### Response mid-valued
